meta.source: ChEMBL document CHEMBL1165986

Target: Beta-secretase 1 (Homo sapiens, UniProt P56817)
Sequence (P56817 whole entry): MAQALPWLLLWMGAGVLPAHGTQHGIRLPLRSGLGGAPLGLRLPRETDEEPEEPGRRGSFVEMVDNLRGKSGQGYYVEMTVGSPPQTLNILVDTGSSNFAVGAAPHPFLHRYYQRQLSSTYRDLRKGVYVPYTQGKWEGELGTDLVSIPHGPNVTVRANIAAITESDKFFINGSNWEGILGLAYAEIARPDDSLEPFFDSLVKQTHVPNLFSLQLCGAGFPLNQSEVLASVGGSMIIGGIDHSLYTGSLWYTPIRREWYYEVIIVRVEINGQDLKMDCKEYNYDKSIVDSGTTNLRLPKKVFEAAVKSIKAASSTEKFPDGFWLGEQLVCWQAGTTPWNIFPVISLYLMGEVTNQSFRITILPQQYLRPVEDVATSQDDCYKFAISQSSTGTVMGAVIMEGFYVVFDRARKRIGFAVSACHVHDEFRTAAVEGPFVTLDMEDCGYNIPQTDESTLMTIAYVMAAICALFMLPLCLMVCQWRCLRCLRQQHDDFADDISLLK
Experiment: Inhibition of BACE1 mediated cleavage of amyloid precursor protein by chemiluminescence assay
pIC50: −log10 of the molar value.
Outcome Measure: pIC50

Compound	pIC50
COc1cccc2cc3c(cc12)[C@]1(C)CC[C@H](O)[C@@H]2COC(=C21)C3=O	4.05
C[C@@]12CC[C@H](O)[C@@H]3COC(=C31)C(=O)c1cc3cccc(O)c3cc12	4.03
